target: pooled human IgG
recordedEndpoint: Enzyme Activity Endpoint Assay (purified): scIgG (ng/µL)
Answers are plain numbers, in ng/µL.

Some entries whose results are on file:
{"columns": ["protein", "endpointUnit", "valueReported"],
 "data": [
  ["PRT-297 (protein) MVTSVWTKGVTPPADFTQGEDVFHAPYDANQGWYDITKEFNGKDDLLCGAATAGNMLHWWFDQNKEYIEAYLKKHPEKQKIMFGDQELLDVRKAINTKGSQKNSELFNYFRDKAFPNLSARRLGVMPDLVLDMFINGYYLNVTKTQTTDVNRTYQEKDKRGGIFDAVFTRGDQSKLLTSRHDFKEKGLKEISDLIKQELTEGKALGLSHTYANVRIGHVINLWGADFDSDGNLKAIYVTDSDSNASIGMKKYGVGVNSAGKVAISAKEIKEDNIGAQVLGLFTLSTGQDIWNQTN", "ng/µL", 0],
  ["PRT-273 (protein) MVTSVWTKGVTPPTDFIYGEDVLHAPYKAGQGWYDITKTFNGKDNLLCGAATAGNMLHWWFDQNKEQIENYLKKHPEKQKIIFNNQELFDLKAAIDTKDSQLDSKLFEYFKEKAFPNLSTKHLGVFPDHVIDMFINGYRLSLLNHGPTPVKRGSKDKRGGIFDAVFTRGVQSKLLTNRHDLKNKTLKEISDLIKQELTEGKALGISHTYANVRINHVINLWGADFDAEGNLEAIYVTDSDTNASIGMKKYFVGVNSSGKVAISAKEIEEDNIGAQVLGLFTLSTGQDIWNQTN", "ng/µL", 0],
  ["PRT-232 (protein) MEVVEVWPYGQNPNGKTEILSQTEDSESLQRLRDIEDFQAEKKMQNVVYTKWLDGVDVKDHDFRKIVDGNIAYYATPLLNGRGFYDINKDFNRDSDKCAAAVAANMFHYWLDINRDNVDRFLRQNPEKHGIIELPDGQLKLSDFLNTYESDHGYRDKSKLFDFISNNFNGPVWTDKLLDNYINGYAYNYKYGRTIEDPTKNTSKINFFKEVFNEKILTNNHSIRNQNEFSVLLSEALYTGKAIGLSYGPAGLRHSLGHIISVWGADLDADGNVVAIYVTDSDDKKLTIGDERVGLKRYKISTDDENRLRLTAYEETHNTGGQIRGLWTLDTGKEAWADYFDKTEQTGTDQAEQLEHHHHHH", "ng/µL", 393]
]}

List reported Enzyme Activity Endpoint Assay (purified): scIgG for each of these proteins:
1. PRT-112 (protein) MRNATEAYAKEVPHKITSVWTKGVTPLTPEQFRYNGEDVIHAPYLANQGWYDITKTFDGKDNLLCGAATAGNMLHWWFDQNKTEIEAYLKKHPEKQKIIFNNQELFDLKAAIDTKDSQTNSALFNYFKDKAFPNLSARQLGVMPDHVLDMFINGYYLNVFKTQSTDVNRPYQDKDKRGGIFDAVFTRGDQTKLLTARHDLKNKGLNEISTLIKQELTEGKALALSHTYANVSISHVINLWGADFNAEGNLEAIYVTDSDANASIGMKKYFVGVNASGKVAISAKKIEGENIGAQVLGLFTLSSGKDIWQKLS
2. PRT-62 (protein) MANQEIRYSEVTPYHVTSVWTKGVTPPANFTQGEDVFHAPYVANQGWYDITKTFNGKDDLLCGAATAGNMLHWWFDQNKDQIKRYLEEHPEKQKINFNGEQMFDVKEAIDTKNHQLDSKLFEYFKEKAFPYLSTKHLGVFPDHVIDMFINGYRLSLTNHGPTPVKEGSKDPRGGIFDAVFGRGDQSKLLTSRHDFKEKNLKEISDLIKKELTEGKALGLSHTYANVRINHVINLWGADFDSNGNLKAIYVTDSDSNASIGMKKYFVGVNSAGKVAISAKEIKEDNIGAQVLGLFTLSTGQDSWNQTN

0
56

Go through the list and state Enzyme Activity Endpoint Assay (purified): scIgG for each entry.
1. PRT-121 (protein) MRNATEAYNEDTPKQITSVWTKGVTPPTPEQFRKYNEDVLHAPYIANQGWYDITKTFNGKDDLLCGAATAGNMLHWWFDQNKTEIEAYLSKYPEKQKIIFNNQELFDLRAAIDTKDSQTNSALFNYFRDKAFPNLSARQLGVMPDLVLDMFINGYYLNVTKTQSTDVNRPYQTKDKRGGIFDAVFTRGDQTTLLTSRHDLKNKTLNEISDLIKQELTEGKALALSHTYANVSISHVINLWGADFNAEGNLEAIYVTDSDANASIGMKKYFVGVNAAGKVAISAKKIEGENIGAQVLGLFTLSTGKDIWEKLS
2. PRT-67 (protein) MANQEIRYSEVTPYHVTSVWTKGVTPPANFTQGEDVFHAPYVANQGWYDINKTFNGKDDLLCGAATAGNMLHWWFDQNKDQIKRYLEEHPEKQKINFNGEQMFDVKEAIDTKNHQLDSKLFEYFKEKAFPYLSTKHLGVFPDHVIDMFINGYRLSLTNHGPTPVKEGSKDPRGGIFDAVFTRGDQSKLLTSRHDFKEKNLKEISDLIKKELTEGKALGLSHTYANVRINHVINLWGADFDSNGNLKAIYVTDSDSNASIGMKKYFVGVNSAGKVAISAKEIKEDNIGAQVLGLFTLSTGQDSWNQTN
3. PRT-120 (protein) MRNATEAYNEETPKQITSVWTKGVTPLTPEDFRYNNEDVFHAPYLANQGWYDITKTFNGKDNLLCGAATAGNMLHWWFDQNKEEIEAYLKKHPEKQKIIFNNQELFDLKAAIDTKDSQTNSQLFNYFKDKAFPNLSARQLGVMPDLVLDMFINGYYLNVNKTQSTDVNRPYQDKDKRGGIFDAVFTRGDQTKLLTERHDLKNKGLNDISTLIKQELTEGKALALSHTYANVSINHVINLWGADFDAEGNLEAIYVTDSDSNESIGMKKYFVGINAAGKVAISAKKIEDENIGAQVLGLFTLSSGKDIWQQLS

0
61
153
